- measurement.target: T1, VACV A27 protein (vaccinia virus, UniProt P11258 1-110)
- T1 sequence: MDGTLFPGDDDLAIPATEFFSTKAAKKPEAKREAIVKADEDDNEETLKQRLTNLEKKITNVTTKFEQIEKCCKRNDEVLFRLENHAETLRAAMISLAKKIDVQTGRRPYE
- test.protocol: lysate ELISA
parameter: EC50

VACV-303 (antibody, V domains shown, human IgG1, anti-A27) VH: EVQLLESGGGLVQPGGSLRLSCAASGFTFSSYAMSWVRQAPGKGLEWVSAISGTGGNTYYADSVKGRFTISRDKSKNTLYLQMHSLRAEDTAVYYCATSLIWWLQSDYWGQGTLVTVSS VL: DIQMTQSPSSLSASVGDRVTITCRASQSIASYLIWYQQKPGNAPKLLIYAASSLQSGVPSRFSGSGSGTDFTLTISSLQPEDFATYYCQQSYSTPQTFGQGTKVDIK; 0.05 µg/mL
VACV-300 (antibody, V domains shown, human IgG1, anti-A27) V domain 1: QVQLVQSGAEVKKPGSSVKVSCKASGGTFSSYAISWVRQAPGQGLEWMGGIIPIFGTANYAQKFQGRVTITADESTGTAYMELTSLRSEDTAIYYCARASEQWLASINWFDPWGQGTLVTVSS V domain 2: QSALTQPASVSGSPGQSITISCTGTSSDVGSYNLVSWYQQHPGKAPKLMIYEVSKRPSGVSNRFSASKSGNTASLTISGLQAEDEADYYCCSYAGSSTLVFGGGTQVTVL; > 0.37 µg/mL
VACV-301 (antibody, V domains shown, human IgG3, anti-A27) VH: EVQLLESGGGLVQPGGSLRLSCAASGFSFSSYAMSWVRQAPGKGLEWVSGIGNSGDRTFYADSAKGRFTIFRDNSNNRLYLQMNSLRAADTAVYYCAKWGRFESGAFWGQGVLVTVSS VL: SYELTQSPSVSVSPGQTARITCSGDALPEQYAYWYQQKPGQAPVLVIYKDSERPSGIPERFSGSGSGTTVTLTITGVQAEDEADYYCQSADNSGTYEVFGTGTKVTVL; > 21 µg/mL
VACV-154 (antibody, V domains shown, human IgG1, anti-A27) VH: EVQLLESGGGLVQPGESLRLSCAASGFTLRNYAMSWVRQTPGKGLEWVSAISGSGGSTYYADSVKGRFTISRDTSKNTLYVQMNSLRAEDTAVYYCAKIRLDSSGYSGAFDIWGQGTRVTVSS VL: SYELTQPPSVSVSPGQTARITCSGDALPKQYASWYQQKPGQAPVLVIYKDSERPSGIPERFSGSSSGTTVTLTISGVQAEDEADYYCQSADSSGTYPVVFGGGTQLTVL; > 0.1 µg/mL
